Examples of molecules with documented melting point follow.

Molecule	Attribute measured	Measurement
COc1ccc(-c2nc(C(=O)Cl)c(C)o2)cc1	melting point	89 °C
CCCCCCCc1cc2cc(C(=O)OCC)ccc2[nH]1	melting point	66 to 69 °C
COC(=O)Cc1sc(=O)[nH]c1/C=C/c1ccccc1	melting point	164 °C
CC(=O)N[C@@H](CSC(C)=O)C(=O)NCCSC(C)=O	melting point	153 to 154 °C
CC(C)(C)c1ccc(S(=O)(=O)Nc2nc(-c3ncccn3)nc(OCCO)c2-c2cccs2)cc1	melting point	236 to 237 °C
CCCN(CCC)C1Cc2cc(C)cc3ncn(c23)C1 (stereo not drawn)	melting point	91 to 94 °C
O=C1c2cc(F)ccc2-n2c1nc1cccc(F)c1c2=O	melting point	323 to 325 °C
CC(=O)c1ccc(N2CCN(c3ccncc3)CC2)cc1	melting point	176 to 177 °C

Challenge: I am curious: what melting point value has been reported for Cc1nc2c(N)nc3cccnc3c2n1CC1(O)CCN(S(C)(=O)=O)CC1 ?
Response given: > 255 °C

Challenge: Reported melting point for COCc1cc2ccccc2oc1=O : what is it?
Response given: 72 to 73 °C

Challenge: Fill blank: measured melting point of the molecule Cc1nc(-n2cnn(CC3CC3)c2=O)sc1C(=O)NCc1cc[nH]n1 is ____.
Response given: 167 to 168 °C

Challenge: Value lookup for melting point; key = CCOc1ccc(C(Cl)=NOS(C)(=O)=O)cc1
Response given: 93 to 95.5 °C

Challenge: Return reported melting point; argument: O=C1C[C@@H](NC(=O)OCc2ccccc2)C(=O)N1
Response given: 117 to 118 °C

Challenge: Form field: reported melting point of Oc1ccc(-c2nc(-c3cccs3)c[nH]2)cc1Br
Response given: 125 to 130 °C

Challenge: Please report the recorded melting point for CCOP(=O)(/C=C/c1cn(-c2ccccc2)nc1OCc1ccc(OCc2nc(-c3ccc(C)c(C(=O)O)c3)oc2CC)c(OC)c1)OCC .
Response given: 165 to 166 °C

Challenge: Look up melting point: O=Cc1cccc(-c2ccoc2)n1
Response given: 59 to 61 °C

Challenge: Quick one: melting point of Cc1ccc(C2c3c(C)c(NC(=O)c4ccc5c(c4)OCO5)c(C)c(C)c3OC2(C)C)cc1 (stereo not drawn) ?
Response given: 164 to 165 °C

Challenge: Given the molecule COc1cc(/C=C/C(=O)CC(=O)CC(C)(C)C)ccc1O , what is its reported melting point?
Response given: 130 to 132 °C

Challenge: Which melting point value belongs to Cc1ccc2[nH]c(CO)cc2c1C ?
Response given: 159 °C

Challenge: Data request, read-out melting point, for Cc1ccc(-c2ccccc2C2=NC(C)(C)CO2)cc1
Response given: 56 to 59 °C

Challenge: For Cc1cccc(C)c1-c1cccc(C(N)=O)c1 , what is its reported melting point?
Response given: 123 to 125 °C

Challenge: melting point lookup needed for CCOC(=O)c1ccc(CC(=O)Nc2csc3nc(C(=O)NCc4cccc(OC)c4)[nH]c(=O)c23)cc1 , thanks.
Response given: 218 to 219 °C

Challenge: Request the reported melting point associated with Cc1cc(N(C)C(N)=O)no1
Response given: 146 to 147 °C
